Taken from BigSolDB 2.1.

settings: in water, 333 K
test readout: solubility (mole fraction)

smiles_text=O=C(O)c1cc(O)c(O)c(O)c1 test_value=0.00712

====

details: in water, 338 K
test readout: solubility (mole fraction)

smiles_text=O=C(O)c1cc(O)c(O)c(O)c1 test_readout="solubility (mole fraction)" test_value=0.00898

====

details: in water, 328 K
test readout: solubility (mole fraction)

smiles_text=O=C(O)c1cc(O)c(O)c(O)c1 test_value=0.00557

====

conditions: in water, 308 K
test readout: solubility (mole fraction)

smiles_text=O=C(O)c1cc(O)c(O)c(O)c1 test_value=0.00203

====

conditions: in water, 313 K
test readout: solubility (mole fraction)

smiles_text=O=C(O)c1cc(O)c(O)c(O)c1 test_value=0.00248

====

conditions: in water, 318 K
test readout: solubility (mole fraction)

smiles_text=O=C(O)c1cc(O)c(O)c(O)c1 test_value=0.00311

====

conditions: in water, 323 K
test readout: solubility (mole fraction)

smiles_text=O=C(O)c1cc(O)c(O)c(O)c1 test_value=0.00433

====

conditions: in water, 303 K
test readout: solubility (mole fraction)

smiles_text=O=C(O)c1cc(O)c(O)c(O)c1 test_readout="solubility (mole fraction)" test_value=0.00176

====

settings: in water, 343 K
test readout: solubility (mole fraction)

smiles_text=O=C(O)c1cc(O)c(O)c(O)c1 test_readout="solubility (mole fraction)" test_value=0.0126
